Data credit: patent US20240025949A1

# MEASUREMENT_TARGET: human angiotensin 2 type 1 receptor (human) (UniProt P30556)
# Sequence (P30556 whole entry): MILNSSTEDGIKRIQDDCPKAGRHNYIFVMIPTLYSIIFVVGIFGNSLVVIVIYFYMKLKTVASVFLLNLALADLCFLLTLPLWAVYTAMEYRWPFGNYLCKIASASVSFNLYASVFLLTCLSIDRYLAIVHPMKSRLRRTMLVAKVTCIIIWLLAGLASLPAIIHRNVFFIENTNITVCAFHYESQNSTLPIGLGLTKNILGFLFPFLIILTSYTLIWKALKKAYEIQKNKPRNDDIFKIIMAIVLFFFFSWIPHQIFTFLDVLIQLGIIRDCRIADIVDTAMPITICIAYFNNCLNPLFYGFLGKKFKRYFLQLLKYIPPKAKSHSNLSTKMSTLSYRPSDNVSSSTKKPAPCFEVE
# PROTOCOL_DESCRIPTION: cell-based or functional assay
Where no end group is shown, it is not given here.
Consider the following binders and their measured IP One EC50 readings.

As a guide, the following entries are already answered.
binder="ERVYYHP (N-methyl; C-terminal amide) [SEQ ID NO: 62 (N-Me-Glu-Arg-Val-Tyr-Tyr-His-Pro-NH2)]" experimental_result="> 10 µM"
binder="ERVYYHP (D-residue; C-terminal amide) [SEQ ID NO: 60 (D-Glu-Arg-Val-Tyr-Tyr-His-Pro-NH2)]" experimental_result="> 10 µM"
binder="RVYIHP-NH2 [SEQ ID NO: 13 (Arg-Val-Tyr-Ile-His-Pro-NH2)]" experimental_result="> 10 µM"
binder="RVYVHPA (N-terminal Me2Gly; C-terminal acid) [SEQ ID NO: 31 (Me2G-Arg-Val-Tyr-Val-His-Pro-Ala-OH)]" experimental_result="> 10 µM"
binder="RVYIHP (N-terminal Sar; C-terminal norvaline) [SEQ ID NO: 35 (Sar-Arg-Val-Tyr-Ile-His-Pro-NVA-OH)]" experimental_result="0.0027 µM"

Request: Name the reported IP One EC50 value associated with the binder RVYYHPI (N-terminal Sar; C-terminal amide) [SEQ ID NO: 15 (Sar-Arg-Val-Tyr-Tyr-His-Pro-Ile-NH2)]
Response: 0.25 µM

Request: Name the reported IP One EC50 value associated with the binder RVYEHPI (N-terminal Sar; C-terminal acid) [SEQ ID NO: 16 (Sar-Arg-Val-Tyr-Glu-His-Pro-Ile-OH)]
Response: > 10 µM

Request: Name the reported IP One EC50 value associated with the binder RVYVHPI (N-terminal Sar; C-terminal acid) [SEQ ID NO: 11 (Sar-Arg-Val-Tyr-Val-His-Pro-Ile-OH)]
Response: > 10 µM
